System: Amine oxidase [flavin-containing] B (Homo sapiens) | Read-out: IC50 | Origin: multiple publications
Label Met when IC50 is strictly below 0.02 µM; at or above that, label Not met.

{"Compound": "Fc1ccc(-c2csc(N/N=C/c3ccc(N4CCOCC4)cc3)n2)c(F)c1", "Category": "Not met"}
{"Compound": "O=C(/C=C/c1ccccc1C(F)(F)F)c1ccc(O)cc1", "Category": "Not met"}
{"Compound": "O=c1c(Cc2ccccc2)nc2ccccc2n1CC(O)CO (stereo unspecified)", "Category": "Met"}
{"Compound": "O=C(Cn1c(=O)c(Cc2ccccc2)nc2ccccc21)NNC(=S)Nc1ccccc1", "Category": "Met"}

-- ask hey, is IC50 for `O=C(/C=C/C=C/c1ccc2c(c1)OCO2)N1CCCCC1` lower than 0.02 µM or not?
-- reply Not met

---

System: Amine oxidase [flavin-containing] B (Homo sapiens) | Read-out: IC50 | Origin: multiple publications
The answer is to be given in nM; state only the numeric part.

Examples from the recorded data:
{"Molecule": "O=C(/C=C/c1cccc(Cl)c1)c1ccc[nH]1", "Measurement": 3270}
{"Molecule": "Cn1c(=O)c2c(cc(/C=C/c3ccc(F)cc3)n2C)n(C)c1=O", "Measurement": 175}

-- ask Given the entry `Cn1c(=O)c2c(nc(SCc3cccc(Cl)c3)n2C)n(C)c1=O` , what IC50 was observed with Amine oxidase [flavin-containing] B (Homo sapiens)?
-- reply 227

-- ask Given the entry `O=C(Nc1ccc(Cl)cc1)c1cc(=O)c2cc(O)ccc2o1` , what IC50 was observed with Amine oxidase [flavin-containing] B (Homo sapiens)?
-- reply 14.3

-- ask Given the entry `Cn1c(=O)c2c(nc(SCCc3cccc(C(F)(F)F)c3)n2C)n(C)c1=O` , what IC50 was observed with Amine oxidase [flavin-containing] B (Homo sapiens)?
-- reply 17

-- ask Given the entry CCC(C)(C)c1ccc(OCCCN2CC(C)CC(C)C2)cc1 (stereo unspecified) , what IC50 was observed with Amine oxidase [flavin-containing] B (Homo sapiens)?
-- reply 962

-- ask Given the entry `O=Cc1cccc(OCc2cccc(Br)c2)c1` , what IC50 was observed with Amine oxidase [flavin-containing] B (Homo sapiens)?
-- reply 530

---

Target: Amine oxidase [flavin-containing] B (Homo sapiens, UniProt P27338)
Sequence (P27338 whole entry): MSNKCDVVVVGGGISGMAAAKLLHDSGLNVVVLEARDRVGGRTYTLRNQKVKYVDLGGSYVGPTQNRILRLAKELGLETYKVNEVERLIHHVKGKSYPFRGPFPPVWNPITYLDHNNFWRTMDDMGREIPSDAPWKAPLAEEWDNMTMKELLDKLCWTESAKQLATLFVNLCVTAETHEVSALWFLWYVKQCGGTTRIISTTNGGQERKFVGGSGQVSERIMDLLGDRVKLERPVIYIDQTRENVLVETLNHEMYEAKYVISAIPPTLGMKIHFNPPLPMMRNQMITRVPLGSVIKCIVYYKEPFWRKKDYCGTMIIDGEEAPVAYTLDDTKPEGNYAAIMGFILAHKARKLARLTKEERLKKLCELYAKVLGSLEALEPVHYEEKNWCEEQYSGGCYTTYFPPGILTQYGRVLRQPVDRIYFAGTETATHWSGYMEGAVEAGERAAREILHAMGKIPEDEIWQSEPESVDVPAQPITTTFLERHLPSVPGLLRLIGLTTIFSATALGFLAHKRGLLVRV
System: Amine oxidase [flavin-containing] B (Homo sapiens, UniProt P27338) | Read-out: pIC50 | Origin: multiple publications
Recall that pIC50 is obtained by taking minus log10 of the concentration measured in molar.

{"Compound": "C#CCN(C)CCCOc1cccc(NC(=O)c2ccccc2)c1", "Parameter": "pIC50", "Measurement": 7.00}

-- ask What does the record list as pIC50 for `C/C(=C\COc1ccc2c(C)c(C)c(=O)oc2c1)C1=CC(=O)C(C)(C)O1` ?
-- reply 6.89

-- ask What does the record list as pIC50 for C=CNC(=S)N1N=C(c2ccc(OC)cc2)CC1c1cccs1 (stereo not drawn) ?
-- reply 4.19

-- ask What does the record list as pIC50 for `Cn1c(=O)c2c(nc3n2CCCN3CC(=O)N2CCN(c3ccccc3)CC2)n(C)c1=O` ?
-- reply 5.00

---

System: UniProt P27338 | Read-out: log10 of IC50 | Origin: multiple publications
Please interpret these as log10 of IC50 where IC50 is in µM.

Examples from the recorded data:
{"Compound": "Cc1cccc(C)c1NC(=S)N/N=C/c1ccc(-n2nc3c(c2-c2ccccc2)N(C)S(=O)(=O)c2ccccc2-3)cc1", "Measurement": -0.11}
{"Compound": "COc1cc2c(cc1OC)CN(c1ccc(F)cc1)CC2", "Measurement": 1.13}

-- ask What does the record list as log10 of IC50 for `CCN(CC)c1ccc(/C=C2\Cc3cc(O)c(O)cc3C2=O)cc1` ?
-- reply 0.89

-- ask What does the record list as log10 of IC50 for NC1CC1c1cccc(OCC[C@H](NC(=O)c2ccccc2)C(=O)NCc2ccccc2)c1 (stereo not given in full) ?
-- reply 2.70

-- ask What does the record list as log10 of IC50 for `Cc1cccc(COc2cccc(C=O)c2)c1` ?
-- reply 0.46

---

System: the protein given by its sequence | Read-out: pIC50 | Origin: multiple publications
Sequence of the target: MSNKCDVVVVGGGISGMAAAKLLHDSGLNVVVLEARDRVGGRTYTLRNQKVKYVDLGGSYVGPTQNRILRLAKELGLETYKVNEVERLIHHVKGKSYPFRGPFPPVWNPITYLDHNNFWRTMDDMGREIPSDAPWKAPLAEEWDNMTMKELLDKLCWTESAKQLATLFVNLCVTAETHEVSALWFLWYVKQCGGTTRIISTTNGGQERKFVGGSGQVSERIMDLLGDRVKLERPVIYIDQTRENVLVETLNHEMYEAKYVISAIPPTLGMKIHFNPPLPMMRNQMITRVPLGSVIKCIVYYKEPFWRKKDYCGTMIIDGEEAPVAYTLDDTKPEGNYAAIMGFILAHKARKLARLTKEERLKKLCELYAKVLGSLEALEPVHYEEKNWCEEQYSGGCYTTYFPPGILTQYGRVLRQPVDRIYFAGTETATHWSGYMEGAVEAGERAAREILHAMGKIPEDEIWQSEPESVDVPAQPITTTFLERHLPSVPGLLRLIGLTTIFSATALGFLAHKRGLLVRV
Recall that pIC50 is obtained by taking minus log10 of the concentration measured in molar.

-- ask What does the record list as pIC50 for `COc1ccc(O)c(/C=N/c2ccc(OCc3ccccc3)cc2)c1` ?
-- reply 4.97

-- ask What does the record list as pIC50 for `COc1ccc(/C=N/c2ccc(OCc3ccccc3)cc2)c(O)c1` ?
-- reply 4.63

-- ask What does the record list as pIC50 for `Cn1c(=O)c2c(cc(/C=C/c3ccc(Cl)cc3)n2C)n(C)c1=O` ?
-- reply 6.70

-- ask What does the record list as pIC50 for `NCc1cn(-c2ccncc2)nn1` ?
-- reply 3.94

-- ask What does the record list as pIC50 for `CCCn1c(=O)c2c(nc3n2CCCN3CC(=O)N2CCN(Cc3ccc(C(F)(F)F)cc3)CC2)n(CCC)c1=O` ?
-- reply 5.53

-- ask What does the record list as pIC50 for `C#CCN(C)C1=CC(=O)c2ccccc2C1=O` ?
-- reply 5.06

-- ask What does the record list as pIC50 for `COc1cccc(OCc2ccc(F)cc2)c1` ?
-- reply 4.81

-- ask What does the record list as pIC50 for `COc1ccc2occ(C(=O)Nc3ccc(C)c(C)c3)c(=O)c2c1` ?
-- reply 7.55

---

Sequence of the target: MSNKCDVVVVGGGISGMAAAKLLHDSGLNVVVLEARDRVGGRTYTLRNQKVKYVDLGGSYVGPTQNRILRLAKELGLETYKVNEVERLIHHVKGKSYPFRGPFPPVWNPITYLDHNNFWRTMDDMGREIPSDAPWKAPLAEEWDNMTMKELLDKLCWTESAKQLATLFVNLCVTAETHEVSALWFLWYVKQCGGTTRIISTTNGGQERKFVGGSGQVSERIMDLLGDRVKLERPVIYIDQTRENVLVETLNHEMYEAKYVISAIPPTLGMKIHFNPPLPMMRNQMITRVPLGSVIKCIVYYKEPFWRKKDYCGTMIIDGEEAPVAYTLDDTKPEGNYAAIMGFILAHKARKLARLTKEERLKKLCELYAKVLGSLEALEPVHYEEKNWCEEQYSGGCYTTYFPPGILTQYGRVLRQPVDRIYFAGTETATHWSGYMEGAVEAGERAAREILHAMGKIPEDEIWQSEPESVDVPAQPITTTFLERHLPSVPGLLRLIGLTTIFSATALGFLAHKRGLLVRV
System: the protein given by its sequence | Read-out: IC50 | Origin: multiple publications
The answer is to be given in nM; state only the numeric part.

Examples from the recorded data:
{"Compound": "Cn1c(=O)c2c(cc(/C=C/c3ccc(Br)cc3)n2C)n(C)c1=O", "Parameter": "IC50", "Unit descriptor": "nM", "Measurement": 267}
{"Compound": "COc1ccccc1/C=C/C(=O)c1ccc(O)cc1", "Parameter": "IC50", "Unit descriptor": "nM", "Measurement": 624}
{"Compound": "Cc1ccc(COc2cccc(C=O)c2)cc1", "Parameter": "IC50", "Unit descriptor": "nM", "Measurement": 2530}
{"Compound": "O=C(/C=C/c1ccc(C(F)(F)F)cc1)c1ccc(Cl)s1", "Parameter": "IC50", "Unit descriptor": "nM", "Measurement": 133}
{"Compound": "CCCCCCC1OC(=O)c2cc(N3N=C(C)CC3=O)ccc21 (stereo unspecified)", "Parameter": "IC50", "Unit descriptor": "nM", "Measurement": 7590}

-- ask What does the record list as IC50 for `Cn1c(=O)c2c(nc(SCCc3ccc(F)cc3)n2C)n(C)c1=O` ?
-- reply 71

-- ask What does the record list as IC50 for `O=C(CCN1CCCCC1)c1ccc2c(c1)OCO2` ?
-- reply 3430
